Values compiled from paper PMC5540273.

tested on: ULK1; conditions: concentration: 1 μM, replicates: in singlicate; n = 1;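 further: KINOMEscan kinase panel screen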

- Compound: "CCCc1ccc(S(=O)(=O)NC2CCN(c3ccnc(Nc4ccc(OC)cc4)n3)C2)cc1 (stereo not drawn)"
  Measurement units: "%"
  %Inh: 99.6
- Compound: "FC(F)(F)c1cc(Nc2nccc(-c3c(-c4ccc(Cl)cc4)nn4ncccc34)n2)ccc1Cl"
  Measurement units: "%"
  %Inh: 0
- Compound: "N#Cc1ccc(Oc2ccc(Nc3ncnc4cc[nH]c34)cc2Cl)cc1"
  Measurement units: "%"
  %Inh: 14
- Compound: "Cn1cc(-c2ccc3c(c2)CCN3C(=O)Cc2cccc(C(F)(F)F)c2)c2c(N)ncnc21"
  Measurement units: "%"
  %Inh: 27
- Compound: "CC(C)(C)OC(=O)NC1CCCN(c2cc(-c3ccc4c(N)n[nH]c4c3)nc(N)n2)C1 (stereo not drawn)"
  Measurement units: "%"
  %Inh: 1
- Compound: "O=C(CCO)NCCn1ccc2ncnc(Nc3ccc(Oc4cccc(C(F)(F)F)c4)c(Cl)c3)c21"
  Measurement units: "%"
  %Inh: 0
- Compound: "COc1cc2ncnc(Nc3ccc(OCc4ccccc4Br)c(Cl)c3)c2cc1OC.Cl"
  Measurement units: "%"
  %Inh: 0
- Compound: "CC(C)(C)c1ccc(-n2cnc3c(N)ncnc32)cc1"
  Measurement units: "%"
  %Inh: 24
- Compound: "COc1ccc(-c2oc3ncnc(N)c3c2-c2ccc(OC)cc2)cc1"
  Measurement units: "%"
  %Inh: 9
- Compound: "COc1ccc(Nc2nccc(N3CCC(NC(=O)c4cccc(NC(C)=O)c4)C3)n2)cc1 (stereo not drawn)"
  Measurement units: "%"
  %Inh: 0
- Compound: "CS(=O)(=O)CCNCc1nc(-c2ccc3ncnc(Nc4ccc(OCc5cccc(F)c5)c(Cl)c4)c3c2)cs1.Cl"
  Measurement units: "%"
  %Inh: 0
- Compound: "Cc1ccc(O)cc1Nc1cc(C(F)(F)F)nc2ccc(-c3ccncc3)cc12"
  Measurement units: "%"
  %Inh: 0
- Compound: "NC(=O)c1sc(-n2cnc3ccccc32)cc1OCc1ccccc1F"
  Measurement units: "%"
  %Inh: 0
- Compound: "Cl.Cl.c1ccc(-c2cc3ccncc3cc2OC2CCNCC2)cc1"
  Measurement units: "%"
  %Inh: 12
- Compound: "Fc1ccc(Nc2nccc(-c3c(-c4ccc(Cl)cc4)nn4ncccc34)n2)cc1F"
  Measurement units: "%"
  %Inh: 45
- Compound: "Fc1cccc(COc2ccc(Nc3ncnc4sc(-c5ccc[nH]5)cc34)cc2Cl)c1"
  Measurement units: "%"
  %Inh: 0
- Compound: "OCCOCCn1ccc2ncnc(Nc3ccc(Oc4cccc(Cl)c4)c(Cl)c3)c21"
  Measurement units: "%"
  %Inh: 0
- Compound: "Fc1cccc(COc2ccc(Nc3ncnc4nn5ccccc5c34)cc2Cl)c1"
  Measurement units: "%"
  %Inh: 1
